normalized growth for assorted molecules
experiment: chemical genetic growth profiling, strain panel (AID 1159580);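 note: tested at 20 µM; growth read once vehicle control cultures reached saturation at 30 °C; 1 = growth at the plate median or of vehicle wells; lower values mean less growth of the strain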; settings: S. cerevisiae deletion strains, growth OD, locus YDR502C, strain sam2, active compounds read low
Among all 5,500 compounds or so, about 2,000 (36%) were called active. Inconclusive results (about 18%) are left out. This is one part of the list.
assay-readout: normalized growth

- O=C(O)c1cc2cc(F)ccc2[nH]1: 1.02
- C/C=C(\C)C(=O)O[C@H]1C[C@@H](OC(C)=O)[C@@]2(C(=O)OC)CO[C@@H]3C2[C@]12CO[C@](O)(C(=O)OC)[C@H]2[C@](C)(C12O[C@@]1(C)[C@H]1C[C@@H]2OC2OC=C[C@@]21O)[C@@H]3O (stereo not given in full): 0.992
- COc1ccc(C(CN(C)C)C2(O)CCCCC2)cc1 (stereo not given): 0.99
- COc1ccc(C(c2ccc(OC)cc2)C(Cl)(Cl)Cl)cc1: 0.989
- CC(=O)Oc1cc(OC(C)=O)c2c(c1)O[C@H](c1ccc(OC(C)=O)c(OC(C)=O)c1)[C@@H](OC(C)=O)C2: 0.984

====

experiment: chemical genetic growth profiling, strain panel (AID 1159580);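 note: tested at 20 µM; growth read once vehicle control cultures reached saturation at 30 °C; 1 = growth at the plate median or of vehicle wells; lower values mean less growth of the strain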; conditions: S. cerevisiae deletion strains, growth OD, locus YJL187C, strain SWE1 (second series)
In all, about 5,500 compounds went through this assay and about 2,000 (36%) were called active. Roughly 18% stayed inconclusive and do not appear here. Rule as the data show it: active = normalized growth mostly below about 0.91 (no sharp cut-off); inconclusive = no clear call, values can overlap the other calls; inactive = mostly above about 0.92. Some of the results follow.
Outcome codes: y (active), n (inactive)

• CN1CC(=O)N=C1N = n
• NCCC(O)C(=O)NC1CC(N)C(OC2OC(CN)C(O)C(O)C2N)C(OC2OC(CO)C(O)C2O)C1O (stereo unspecified) = n
• Cn1c(=O)c2c(ncn2CC(O)CO)n(C)c1=O (stereo unspecified) = n
• O=c1cccc2ccc(O)c(O)c2c1O = y
• C=C[C@@](C)(O)CCC1C(=C)CCC2[C@@](C)(CO)CCC[C@]12C (stereo partly specified) = n
• C=C1CCC2[C@](C)(CO)[C@H](O)CC[C@@]2(C)[C@@H]1C/C=C1/C(=O)OC[C@H]1O (stereo partly specified) = n
• COc1ccc(OC)c(C(O)CNC(=O)CN)c1 (stereo unspecified) = n
• C=C[C@@](C)(O)CCC1C(=C)C[C@H](OC(C)=O)C2C(C)(C)CCCC12C (stereo partly specified) = n
• COc1ccc2c(c1)OC1(O)COc3cc(OC)c(OC)cc3C1=C2 (stereo unspecified) = n
• CCCCCCCCCCC[C@@H](C[C@H]1OC(=O)[C@H]1CCCCCC)OC(=O)[C@@H](CC(C)C)NC=O = n
• CNCCC(Oc1ccc(C(F)(F)F)cc1)c1ccccc1 (stereo unspecified) = n

====

experiment: chemical genetic growth profiling, strain panel (AID 1159580);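 note: tested at 20 µM; growth read once vehicle control cultures reached saturation at 30 °C; 1 = growth at the plate median or of vehicle wells; lower values mean less growth of the strain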; conditions: S. cerevisiae deletion strains, growth OD, locus YNR052C, strain pop2, active compounds read low
Hit rate of the full screen: of about 5,500 compounds, about 2,000 (36%) were called active. About 18% were inconclusive and are not listed. The list shows a part of the results.
normalized growth for assorted compounds
assay-readout: normalized growth

- COc1cc(OC)c2c(c1)O[C@H](c1cc(OC)c(OC)c(OC)c1)[C@H](OC(=O)c1cc(OC)c(OC)c(OC)c1)C2: 1.01
- COc1ccc(C(c2ccc(OC)cc2)C(Cl)(Cl)Cl)cc1: 0.96
- COc1ccc2c(c1)OC/C(=C/c1ccc(OC)c(OC)c1)C2=O: 0.964
- CC1(C)CCC[C@@]2(C)C1[C@@H](O)C[C@]1(C)C2CC[C@@H]2[C@@]3(C)CC[C@H](C(C)(C)O)[C@@H]3CC[C@@]21C (stereo partly specified): 0.994
- CCC(C)C(=O)OC1CC2(C)C(c3ccoc3)OC(=O)CC23OC2(C)OC34C(OC(=O)C(C)C)C3(O)C(OC(=O)C5(C)OC5C)C5(C)CC3(O)C(C)(C5C(=O)OC)C14O2 (stereo unspecified): 1.02
- C=C1CCC2[C@](C)(CO)[C@H](O)CC[C@@]2(C)[C@@H]1C/C=C1/C(=O)OC[C@H]1O (stereo partly specified): 1.03
- NCCc1cnc[nH]1: 1.01
- COc1cc2c(cc1OC)C(=O)c1ccc(OC)c(OC)c1OCC(=O)C2: 0.996
- CC(=O)Oc1cc(OC(C)=O)c2c(c1)O[C@H](c1ccc(OC(C)=O)c(OC(C)=O)c1)[C@H](OC(C)=O)C2: 1.03
- CNC(=O)O/N=C(\C)SC: 0.988
- CN(C)CCN(Cc1cccs1)c1ccccn1: 1.01
- NS(=O)(=O)c1cc2c(cc1Cl)NC=NS2(=O)=O: 0.996
- C=C[C@@](C)(O)CCC1C(=C)C[C@H](OC(C)=O)C2C(C)(C)CCCC12C (stereo partly specified): 1.02
- CN(C)CCOC(c1ccc(Cl)cc1)c1ccccn1 (stereo unspecified): 1.01
- CCn1cc(C(=O)O)c(=O)c2cc(F)c(N3CCNCC3)nc21: 1.02
- CN1C2C[C@H](OC(=O)[C@H](CO)c3ccccc3)C[C@H]1[C@@H](O)C2: 0.992
- NCCC(O)C(=O)NC1CC(N)C(OC2OC(CN)C(O)C(O)C2N)C(OC2OC(CO)C(O)C2O)C1O (stereo unspecified): 0.994
- COc1ccc(C(CN(C)C)C2(O)CCCCC2)cc1 (stereo unspecified): 0.998
- C=C[C@@](C)(O)CCC1C(=C)C[C@H](O)C2C(C)(C)CCCC12C (stereo partly specified): 1.02
- N[C@@H](Cc1ccc(N(CCCl)CCCl)cc1)C(=O)O: 0.974
- O=C1NCC2(CCN(CCc3ccccc3)CC2)O1: 1
- CN(C)CCN(Cc1ccccc1)c1ccccn1: 0.986
- Cc1ccccc1C(OCCN(C)C)c1ccccc1 (stereo unspecified): 1.01
- C[C@@H]1O[C@@H](O[C@H]2[C@H](Oc3cc(O)c4c(=O)cc(-c5ccc(O)cc5)oc4c3)O[C@H](CO)[C@@H](O)[C@@H]2O)[C@H](O)[C@H](O)[C@H]1O: 1.01
- C[C@]12CCC(=O)C=C1C=CC1C2CC[C@@]2(C)C1CC[C@@]2(O)CCC(=O)O (stereo partly specified): 0.996
- CN1C2CCC1CC(OC(c1ccccc1)c1ccccc1)C2 (stereo unspecified): 0.972
- COC(=O)C[C@H]1C2(C)CC34OC5(C)O[C@@]6([C@H](OC)C(OC(=O)C(C)C)[C@]7(C)C(/C(=C(/OC)C(C)C)C(=O)O[C@H]7c7ccoc7)[C@@]6(O5)[C@H](OC)[C@@]3(OC)C2OC(C)=O)[C@]14C (stereo partly specified): 1.03
- OCC(O)CN1CCN(c2ccccc2)CC1 (stereo unspecified): 1
- CC1CCc2cc(F)cc3c(=O)c(C(=O)O)cn1c23 (stereo unspecified): 0.96
- CN1CCC(OC(c2ccccc2)c2ccccc2)CC1: 0.984
- Clc1ccc(C(OCCN2CCCCC2)c2ccccc2)cc1 (stereo unspecified): 0.965
- COC(=O)/C=C/C(C)=C/C=C/C(C)=C/C=C/C=C(C)/C=C/C=C(C)/C=C/C(=O)O: 0.998
- COc1ccc2c(c1)OC1(O)COc3cc(OC)c(OC)cc3C1=C2 (stereo unspecified): 0.98
- O=C(O)CCCc1ccc(N(CCCl)CCCl)cc1: 0.985
- CC1(C)S[C@@H]2[C@H](NC(=O)[C@H](N)c3ccccc3)C(=O)N2[C@H]1C(=O)O: 1
- CN1CC(=O)N=C1N: 0.991
- C#CCN(C)Cc1ccccc1: 1.03
- C[C@H]1COc2c(N3CCN(C)CC3)c(F)cc3c(=O)c(C(=O)O)cn1c23: 1.02
- COC(=O)CC1C2(C)CC34OC5(C)OC6(C7/C(=C(/O)C(C)C)C(=O)OC(c8ccoc8)C7(C)C(OC(=O)C(C)C)C(OC)C6(O5)C13C)C(OC)C4(OC)C2OC(C)=O (stereo unspecified): 0.977
- CCn1cc(C(=O)O)c(=O)c2cc(F)c(N3CCNC(C)C3)c(F)c21 (stereo unspecified): 0.989
- CNCCC(Oc1ccc(C(F)(F)F)cc1)c1ccccc1 (stereo unspecified): 1

====

assay: chemical genetic growth profiling, strain panel (AID 1159580);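 note: tested at 20 µM; growth read once vehicle control cultures reached saturation at 30 °C; 1 = growth at the plate median or of vehicle wells; lower values mean less growth of the strain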; conditions: S. cerevisiae deletion strains, growth OD, locus YPR119W, strain clb2
The whole screen tested about 5,500 compounds, of which about 2,000 (36%) were called active. Inconclusive results (about 18%) are left out. Cut-off read from the data, not from the text of the source: active = normalized growth mostly below about 0.91 (no sharp cut-off); inconclusive = no clear call, values can overlap the other calls; inactive = mostly above about 0.92. This is one part of the list.
Outcome codes: 1.0 = active, 0.0 = inactive

• O=C1CCC(N2C(=O)c3ccccc3C2=O)C(=O)N1 (stereo unspecified) = 0.0
• C[C@@H]1CC(Cl)CC[C@H]1C(=O)OC(C)(C)C (stereo partly specified) = 0.0
• CC[C@@]1(O)C[C@H](O[C@H]2C[C@H](N(C)C)[C@H](O)[C@H](C)O2)c2c(cc3c(c2O)C(=O)c2c(O)ccc(O)c2C3=O)[C@H]1C(=O)OC = 1.0
• COc1ccc(CN(CCN(C)C)c2ccccn2)cc1 = 0.0
• CC[C@@]1(O)C[C@H](O[C@H]2C[C@H](N(C)C)[C@H](O)[C@H](C)O2)c2c(cc3c(c2O)C(=O)c2c(O)cccc2C3=O)[C@H]1C(=O)OC = 1.0
• O=C(O)/C=C/c1ccc(O)c(O)c1 = 0.0
• Cc1[nH]c2ccccc2c1CN(C)C = 0.0
• CN(C)CCN(Cc1cccs1)c1ccccn1 = 0.0
• CC[C@@]1(O)C[C@H](O)c2c(cc3c(c2O)C(=O)c2c(O)ccc(O)c2C3=O)[C@H]1C(=O)OC = 0.0
• c1ccc2c(c1)sc1ccccc12 = 0.0
• CCCCCCC(C)OC(=O)COc1cc(Cl)c(Cl)cc1Cl (stereo unspecified) = 0.0
